system: CCRIS mutagenicity, Ames/micronucleus/aberration tests; test: CCRIS mutagenicity studies; conditions: Test System: AMES SALMONELLA TYPHIMURIUM; Strain/Indicator: TA98; Metabolic Activation: RAT, LIVER, S-9, AROCLOR; Method: STANDARD PLATE
Calls of active or inactive are those of the source. The rule behind the calls is not given here.
A correct response names exactly one class from y for active, n for inactive

Study these solved cases before continuing.
| Compound | Category |
| --- | --- |
| CCCCO | n |
| Cc1ccc(/C=C/c2ccc([N+](=O)[O-])cc2)cc1 | y |
| CC1CNc2cc(O)c3ccc4ccccc4c3c21 (stereo not drawn) | y |

In: What was the test verdict on Cn1ccc2c3c(ccc4ccc(O)cc43)ccc21 ?
Out: y

In: What was the test verdict on C=CCCCCCCCCCCCC ?
Out: n

In: What was the test verdict on O=[N+]([O-])c1c(Cl)c(Cl)c2c(c1Cl)Oc1cc(Cl)c(Cl)cc1O2 ?
Out: y

In: What was the test verdict on CC(C)(C)c1ccc(/C=C/c2ccc(N)cc2)cc1 ?
Out: n

In: What was the test verdict on Cn1ccc2ccc3ccc4ccc(O)cc4c3c21 ?
Out: y
